# testedSystem: T1, Recombinant human CXCL16 (rhCXCL16) protein (human, UniProt Q9H2A7 30-118, limits assumed)
# T1 construct: Bought recombinant protein (976-CX, R&D systems); also called CXCL16 antigen; 976-CX (R&D systems)
# T1 sequence: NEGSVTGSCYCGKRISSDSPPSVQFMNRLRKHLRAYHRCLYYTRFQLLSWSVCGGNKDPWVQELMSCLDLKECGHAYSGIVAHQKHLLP
# assayName: BLI (ForteBio), antibody captured on biosensor, rhCXCL16 in solution, 25 C
recordedEndpoint: Res@3.7 nM
Would you mind answering with just the numeric figure?

Asked: Kindly indicate its recorded Res@3.7 nM. Item: HC5LC1 (antibody, human IgG1, kappa, V domains shown, Humanized; human IgG1 / kappa constant domains; also called HCSLC1; humanized CXCL16 antibody HC5LC1) VH: EVQLVESGGGLVQPGGSLKLSCAASGFTFSNAVMNWVRQASGKGLEWVARIRTKPNNYATFYADSVKGRFTFSRDDSKNTAYLQMNSLKTEDTAMYYCTAWTTEGIYWGQGTLVTVSS VL: DIVMTQSPDSLAVSAGETVTINCKSSQSLLYSGNQKNYLAWYQQKPGQSPKLLIYWASTRQSGVPDRFSGSGSGTDFTLTISSVQAEDVAVYYCQQYYDTPWTFGGGTKVEIKR
Given back: 0.08

Asked: Kindly indicate its recorded Res@3.7 nM. Item: HC5LC5 (antibody, human IgG1, kappa, V domains shown, Humanized; human IgG1 / kappa constant domains; also called HCSLCS; humanized CXCL16 antibody HC5LC5) VH: EVQLVESGGGLVQPGGSLKLSCAASGFTFSNAVMNWVRQASGKGLEWVARIRTKPNNYATFYADSVKGRFTFSRDDSKNTAYLQMNSLKTEDTAMYYCTAWTTEGIYWGQGTLVTVSS VL: DIVMTQSPSSLAVSAGERATINCKSSQSLLYSGNQKNYLAWYQQKPGQSPKLLIYWASTRQSGVPDRFIGSGSGTDFTLTISSLQAEDVAIYYCQQYYDTPWTFGGGTKLELKR
Given back: 0.231

Asked: Kindly indicate its recorded Res@3.7 nM. Item: Chimeric antibody HC0LC0 (antibody, V domains shown, also called CLS-A1HC0LC0; variant antibody) VH: AVQLVESGGGLVQPKESLKISCAASGFTFSNAVMNWVRQAPGKGLEWVARIRTKPNNYATFYADSVKGRFTFSRDDSKSMVYLQMDNLKTEDTAMYYCTAWTTEGIYWGQGTLVTVSS VL: DIVMTQSPSSLAVSAGETVTINCKSSQSLLYSGNQKNYLAWYQQKPGQSPKLLIYWASTRQSGVPDRFIGSGSGTDFTLTISSVQAEDLAIYYCQQYYDTPWTFGGGTKLELKR
Given back: 0.13

Asked: Kindly indicate its recorded Res@3.7 nM. Item: HC5LC3 (antibody, human IgG1, kappa, V domains shown, Humanized; human IgG1 / kappa constant domains; also called HCSLC3; humanized CXCL16 antibody HC5LC3) VH: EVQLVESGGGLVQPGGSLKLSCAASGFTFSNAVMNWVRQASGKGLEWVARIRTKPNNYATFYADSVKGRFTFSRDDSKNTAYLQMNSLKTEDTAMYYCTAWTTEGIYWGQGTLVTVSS VL: DIQMTQSPSSLSASVGDRVTITCKSSQSLLYSGNQKNYLAWYQQKPGQSPKLLIYWASTRQSGVPDRFSGSGSGTDFTLTISSLQAEDFATYYCQQYYDTPWTFGGGTKVEIKR
Given back: 0.078

Asked: Kindly indicate its recorded Res@3.7 nM. Item: HC5LC2 (antibody, human IgG1, kappa, V domains shown, Humanized; human IgG1 / kappa constant domains; also called HCSLC2; humanized CXCL16 antibody HC5LC2) VH: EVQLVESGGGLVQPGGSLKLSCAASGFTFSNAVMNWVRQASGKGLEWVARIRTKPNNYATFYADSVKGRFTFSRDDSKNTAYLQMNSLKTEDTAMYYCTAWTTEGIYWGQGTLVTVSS VL: DIVMTQSPSSLAVSLGETATINCKSSQSLLYSGNQKNYLAWYQQKPGQPPKLLIYWASTRQSGVPDRFTGSGAGTDFTLTISSVQAEDLAIYYCQQYYDTPWTFGGGTKVEIKR
Given back: 0.152

Turning to the following binder.
Asked: Kindly indicate its recorded Res@3.7 nM. Item: HC4LC1 (antibody, human IgG1, kappa, V domains shown, Humanized; human IgG1 / kappa constant domains; also called humanized CXCL16 antibody HC4LC1) VH: EVQLVESGGGLVKPGGSLRLSCAASGFTFSNAVMNWVRQAPGKGLEWVARIRTKPNNYATFYADSVKGRFTFSRDDSKNTLYLQMNSLKTEDTAVYYCTAWTTEGIYWGQGTTVTVSS VL: DIVMTQSPDSLAVSAGETVTINCKSSQSLLYSGNQKNYLAWYQQKPGQSPKLLIYWASTRQSGVPDRFSGSGSGTDFTLTISSVQAEDVAVYYCQQYYDTPWTFGGGTKVEIKR
Given back: 0.113

Value source: patent US20240327509A1
